# System: Haemophilus influenzae Wy21
# RUN DESCRIPTION: MIC against human bacteria in vitro
# Type: cell-based
# ASSAY CONDITIONS: Haemophilus influenzae Wy21; 5% chocolated horse blood agar, 18 hours; read-out: MIC
REPORTED ENDPOINT: log10 MIC (log10 of the value in µg/mL)
Hello, just confirming the data are log10 of MIC with units of µg/mL.

Solved entries (count: 8):
C/C(=C\c1ncc(-c2ccc(Br)cc2)o1)C[C@@H]1OC[C@H](C[C@@H]2O[C@H]2[C@@H](C)[C@H](C)O)[C@@H](O)[C@H]1O | 0.60
C/C(=C\c1ncc(-c2cccc(C#N)c2)o1)C[C@@H]1OC[C@H](C[C@@H]2O[C@H]2[C@@H](C)[C@H](C)O)[C@@H](O)[C@H]1O | 0.08
C/C(=C\c1ncc(-c2cccc([S+](C)[O-])c2)o1)C[C@@H]1OC[C@H](C[C@@H]2O[C@H]2[C@@H](C)[C@H](C)O)[C@@H](O)[C@H]1O (some centres unmarked) | 0.30
C/C(=C\c1ncc(-c2ccc(C=O)cc2)o1)C[C@@H]1OC[C@H](C[C@@H]2O[C@H]2[C@@H](C)[C@H](C)O)[C@@H](O)[C@H]1O | 0.60
C/C(=C\c1ncc(-c2ccc(C(=O)O)cc2)o1)C[C@@H]1OC[C@H](C[C@@H]2O[C@H]2[C@@H](C)[C@H](C)O)[C@@H](O)[C@H]1O | 0.30
C/C(=C\c1ncc(-c2ccccc2)o1)C[C@@H]1OC[C@H](C[C@@H]2O[C@H]2[C@@H](C)[C@H](C)O)[C@@H](O)[C@H]1O | 0.00
CSc1cccc(-c2cnc(/C=C(\C)C[C@@H]3OC[C@H](C[C@@H]4O[C@H]4[C@@H](C)[C@H](C)O)[C@@H](O)[C@H]3O)o2)c1 | 0.60
C/C(=C\c1ncc(CCCCCCCC(=O)O)o1)C[C@@H]1OC[C@H](C[C@@H]2O[C@H]2[C@@H](C)[C@H](C)O)[C@@H](O)[C@H]1O | 0.30

Please go through the list and note log10 MIC for each compound.
1. COc1ccc(-c2cnc(/C=C(\C)C[C@@H]3OC[C@H](C[C@@H]4O[C@H]4[C@@H](C)[C@H](C)O)[C@@H](O)[C@H]3O)o2)cc1
2. C/C(=C\c1nc(C)c(-c2ccccc2)o1)C[C@@H]1OC[C@H](C[C@@H]2O[C@H]2[C@@H](C)[C@H](C)O)[C@@H](O)[C@H]1O

1: 0.40; 2: 1.70
